Data origin: ChEMBL document CHEMBL2218924

assay.target: Tyrosine-protein kinase Fer (Homo sapiens) (UniProt P16591)
Sequence (P16591 whole entry, looked up): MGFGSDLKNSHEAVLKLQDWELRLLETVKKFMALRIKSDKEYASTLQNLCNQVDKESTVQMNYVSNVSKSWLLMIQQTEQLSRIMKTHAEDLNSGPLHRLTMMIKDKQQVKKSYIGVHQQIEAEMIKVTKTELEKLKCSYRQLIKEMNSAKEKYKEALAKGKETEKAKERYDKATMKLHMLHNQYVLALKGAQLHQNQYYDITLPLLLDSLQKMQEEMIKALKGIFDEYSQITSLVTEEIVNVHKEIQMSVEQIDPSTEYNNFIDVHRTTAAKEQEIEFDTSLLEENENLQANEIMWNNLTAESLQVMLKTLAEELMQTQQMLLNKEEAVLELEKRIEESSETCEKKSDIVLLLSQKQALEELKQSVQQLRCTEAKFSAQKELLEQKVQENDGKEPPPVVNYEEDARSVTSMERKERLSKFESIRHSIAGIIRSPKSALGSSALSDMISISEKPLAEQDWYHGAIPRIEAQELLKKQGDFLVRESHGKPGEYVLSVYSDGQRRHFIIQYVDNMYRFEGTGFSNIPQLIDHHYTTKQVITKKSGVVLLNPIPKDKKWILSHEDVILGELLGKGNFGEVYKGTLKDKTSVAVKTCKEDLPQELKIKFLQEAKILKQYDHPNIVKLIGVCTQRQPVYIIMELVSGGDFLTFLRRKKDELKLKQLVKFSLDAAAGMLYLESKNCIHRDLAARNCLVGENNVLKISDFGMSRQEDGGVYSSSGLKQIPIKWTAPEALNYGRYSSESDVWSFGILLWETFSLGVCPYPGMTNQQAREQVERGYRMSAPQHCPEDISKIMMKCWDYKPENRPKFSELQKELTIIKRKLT
conditions.used: at 1 µM
property: residual activity (%)
Numeric answer only, unit % assumed.

CCN(CC)CCNC(=O)c1c(C)[nH]c(/C=C2\C(=O)Nc3ccc(Cl)cc32)c1C = 79
c1ccc(-c2cnc(Nc3ccc(OCCN4CCCC4)cc3)s2)cc1 = 111
CC(C)[C@H](CO)Nc1nc(Nc2cc(N)cc(Cl)c2)c2ncn(C(C)C)c2n1 = 88

Exercise: Quick check: residual activity of COc1ccc2c(c1)c(C1=C(c3c[nH]c4ccccc34)C(=O)NC1=O)cn2CCCN(C)C ?
Key: 102

Exercise: Quick check: residual activity of NCCNc1ncc(C(N)=O)c(Nc2cccc(C(F)(F)F)c2)n1 ?
Key: 102

Exercise: Quick check: residual activity of N#C/C(=C1/Nc2ccccc2S1)c1ccnc(NCCc2cccnc2)n1 ?
Key: 89

Exercise: Quick check: residual activity of CCCC(=O)Oc1ccc2[nH]c(C(=O)c3cc4ccccc4[nH]3)cc2c1 ?
Key: 107
